# Assayed target: HLA-A*24 (peptide-receptive MHC class I monomer of the UV-ligand exchange assay) (human)
# Assay details: UV-ligand exchange with anti-b2m ELISA
Measured endpoint: peptide exchange yield

Qu. Query (binder): IFIEVFSHF [Peptide SEQ ID NO: 178 (…)] ; field requested: peptide exchange yield
Ans. 50 to 75%

Qu. Query (binder): EFGSLHLEFL [Peptide SEQ ID NO: 194 (…)] ; field requested: peptide exchange yield
Ans. < 20%

Qu. Query (binder): PYRLIFEKF [Peptide SEQ ID NO: 281 (…)] ; field requested: peptide exchange yield
Ans. 20 to 49%

Qu. Query (binder): TYELRYFQI [Peptide SEQ ID NO: 204 (…)] ; field requested: peptide exchange yield
Ans. > 75%

Qu. Query (binder): TYTQDFNKF [Peptide SEQ ID NO: 208 (…)] ; field requested: peptide exchange yield
Ans. 50 to 75%

Qu. Query (binder): KFSSFSLFF [Peptide SEQ ID NO: 164 (…)] ; field requested: peptide exchange yield
Ans. 50 to 75%

Qu. Query (binder): VFTSTARAF [Peptide SEQ ID NO: 183 (…)] ; field requested: peptide exchange yield
Ans. 50 to 75%

Qu. Query (binder): KYTSWYVAL [Peptide SEQ ID NO: 228 (…)] ; field requested: peptide exchange yield
Ans. > 75%

Qu. Query (binder): LYLDIINLF [Peptide SEQ ID NO: 181 (…)] ; field requested: peptide exchange yield
Ans. > 75%
